Provide the reported solubility in compendial media of each item.
Test: Solubility in compendial aqueous media
Type: physicochemical
Conditions: Hydrochloric Acid 0.1 N (pH = 1.2); 37 °C, 30 min; mean ± standard deviation, n = 3
Report the figure in µg/mL without appending any unit label.

Lab note: COc1cccc(C=NNC(=O)c2ccncc2)c1[O-].[Cl-].[Pt+2] [complex 8, [Pt(L)(Cl)]] gave solubility in compendial media of 1.33

Lab note: COc1cccc(C=NNC(=O)c2ccncc2)c1[O-].O.O=[N+]([O-])[O-].[Cu+2] [complex 3, [Cu(L)(NO3)]·H2O] gave solubility in compendial media of 0.92

Lab note: COc1cccc(C=NNC(=O)c2ccncc2)c1[O-].O.[Cu+2].[O-][Cl+3]([O-])([O-])[O-] [complex 4, [Cu(L)(ClO4)]·H2O] gave solubility in compendial media of 0.82

Lab note: COc1cccc(C=NNC(=O)c2ccncc2)c1[O-].[Cl-].[Ni+2] [complex 7, [Ni(L)(Cl)]] gave solubility in compendial media of 2.26
